- targetDesc: human 5-HT2B receptors (Homo sapiens, UniProt P41595)
- Construct: expressed in transfected cells; host or cells: CHO cell line
- Sequence (P41595 whole entry): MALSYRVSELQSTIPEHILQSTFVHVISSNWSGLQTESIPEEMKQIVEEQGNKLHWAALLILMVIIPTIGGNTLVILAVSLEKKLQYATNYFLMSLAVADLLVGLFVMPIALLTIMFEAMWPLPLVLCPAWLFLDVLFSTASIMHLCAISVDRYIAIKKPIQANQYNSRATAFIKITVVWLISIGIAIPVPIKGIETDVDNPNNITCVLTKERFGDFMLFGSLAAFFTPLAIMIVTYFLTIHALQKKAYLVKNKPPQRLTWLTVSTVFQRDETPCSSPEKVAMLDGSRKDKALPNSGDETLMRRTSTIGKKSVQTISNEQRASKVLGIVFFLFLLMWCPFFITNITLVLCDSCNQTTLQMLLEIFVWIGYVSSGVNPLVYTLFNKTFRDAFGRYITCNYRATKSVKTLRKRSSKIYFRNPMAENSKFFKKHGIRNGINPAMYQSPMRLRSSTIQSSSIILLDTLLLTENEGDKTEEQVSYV
- experimentNotes: Binding to 5-HT2B receptor, [3H]-5-HT, CHO cell line
Counter-ions that a name gives are not always drawn.
property: Ki (nM)
Just the number in nM, nothing appended.

Can you look up the measured Ki of CC(N)Cc1c2n(c3cc(F)c(F)cc13)CCC2 (racemic) [Example 2, hydrochloride] for me?
102

====

- targetDesc: 5-HT2A receptor (Homo sapiens, UniProt P28223)
- Sequence (P28223 whole entry): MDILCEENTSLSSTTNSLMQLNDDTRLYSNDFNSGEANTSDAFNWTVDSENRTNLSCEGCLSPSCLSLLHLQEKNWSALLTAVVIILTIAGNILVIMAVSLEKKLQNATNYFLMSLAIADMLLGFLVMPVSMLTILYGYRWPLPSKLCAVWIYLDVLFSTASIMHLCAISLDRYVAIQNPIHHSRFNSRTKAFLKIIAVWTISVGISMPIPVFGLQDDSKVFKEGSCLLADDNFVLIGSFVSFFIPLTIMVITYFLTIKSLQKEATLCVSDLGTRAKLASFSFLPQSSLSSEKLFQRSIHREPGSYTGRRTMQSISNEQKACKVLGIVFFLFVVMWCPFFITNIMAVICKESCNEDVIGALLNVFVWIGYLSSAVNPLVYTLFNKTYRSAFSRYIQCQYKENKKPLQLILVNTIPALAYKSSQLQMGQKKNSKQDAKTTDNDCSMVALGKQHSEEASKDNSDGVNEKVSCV
- experimentNotes: Functional activity, FLIPR calcium assay, CHO cells expressing human 5-HT2A
- Format: cell-based
- Set-up: expressed in transfected cells; host or cells: CHO cells
- studyConditions: h5-HT2A EC50, FLIPR, CHO cells
pEC50: −log10 of the molar value. Structures can show the parent of a compound that is named as a salt.
property: pEC50

Can you look up the measured pEC50 of CC(N)Cc1c2n(c3cc(F)c(F)cc13)CCC2 (racemic) [Example 2, hydrochloride] for me?
< 6.00
